Assay: clinical
Conditions: human, in vivo, Serum concentration of erythromycine, Average
property label: concentration at 2 h (ng/mL)
# value in ng/mL; strip the unit string

Q: Any idea what its concentration at 2 h is? The molecule is `CC[C@H]1OC(=O)[C@H](C)[C@@H](O[C@H]2C[C@@](C)(OC)[C@@H](O)[C@H](C)O2)[C@H](C)[C@@H](O[C@@H]2O[C@H](C)C[C@H](N(C)C)[C@H]2O)[C@](C)(O)C[C@@H](C)C(=O)[C@H](C)[C@@H](O)[C@]1(C)O`
A: 988

###

Assay: clinical
Settings: human, in vivo, Maximum concentrations of erythromycin, Average m
property label: Cmax (ng/mL)
# value in ng/mL; strip the unit string

Q: Any idea what its Cmax is? The molecule is `CC[C@H]1OC(=O)[C@H](C)[C@@H](O[C@H]2C[C@@](C)(OC)[C@@H](O)[C@H](C)O2)[C@H](C)[C@@H](O[C@@H]2O[C@H](C)C[C@H](N(C)C)[C@H]2O)[C@](C)(O)C[C@@H](C)C(=O)[C@H](C)[C@@H](O)[C@]1(C)O`
A: 996

###

Test: clinical
Settings: human, in vivo, Serum concentration of erythromycine, Average
property label: concentration at 1 h (ng/mL)
# value in ng/mL; strip the unit string

Q: Any idea what its concentration at 1 h is? The molecule is `CC[C@H]1OC(=O)[C@H](C)[C@@H](O[C@H]2C[C@@](C)(OC)[C@@H](O)[C@H](C)O2)[C@H](C)[C@@H](O[C@@H]2O[C@H](C)C[C@H](N(C)C)[C@H]2O)[C@](C)(O)C[C@@H](C)C(=O)[C@H](C)[C@@H](O)[C@]1(C)O`
A: 321
